# selectivity ratio values compiled below
protocol summary: in vitro
run parameters: human, WI38 cells
Description: Selectivity index, ratio of IC50 for human WI38 cells to IC50 for Trypanosoma brucei brucei Lister 427 bloodstream form

[
  {
    "compound": "C=C[C@H]1CN2CC[C@H]1C[C@H]2[C@@H](O)c1cc(CC[C@@H](C)[C@H]2CC[C@H]3[C@@H]4[C@H](OC(C)=O)C[C@@H]5C[C@H](OC(C)=O)CC[C@]5(C)[C@H]4CC[C@]23C)nc2ccccc12",
    "selectivity ratio": 4.5
  },
  {
    "compound": "C=C[C@H]1CN2CC[C@H]1C[C@H]2[C@@H](O)c1cc(CC[C@@H](C)[C@H]2CC[C@H]3[C@@H]4CC[C@@H]5C[C@H](O)CC[C@]5(C)[C@H]4CC[C@]23C)nc2ccccc12",
    "selectivity ratio": 1.3
  },
  {
    "compound": "C=C[C@H]1CN2CC[C@H]1C[C@H]2[C@@H](O)c1cc(CC[C@@H](C)[C@H]2CC[C@H]3[C@@H]4CC[C@@H]5C[C@H](OC(C)=O)CC[C@]5(C)[C@H]4CC[C@]23C)nc2ccccc12",
    "selectivity ratio": 5.6
  },
  {
    "compound": "C=C[C@H]1CN2CC[C@H]1C[C@H]2[C@H](O)c1ccnc2ccc(OC)cc12 [QUININE]",
    "selectivity ratio": 1
  }
]

* * *

Test system: WI-38
protocol summary: Cytotoxicity against human WI38 cells by MTT assay
Format: cell-based

[
  {
    "structure as smiles": "C=C[C@H]1CN2CC[C@H]1C[C@H]2[C@H](O)c1cc(CC[C@@H](C)[C@H]2CC[C@H]3[C@@H]4[C@H](O)C[C@@H]5C[C@H](O)CC[C@]5(C)[C@H]4CC[C@]23C)nc2ccc(OC)cc12",
    "IC50": "4.57 µg/mL"
  },
  {
    "structure as smiles": "C=C[C@H]1CN2CC[C@H]1C[C@H]2[C@@H](O)c1cc(CC[C@@H](C)[C@H]2CC[C@H]3[C@@H]4CC[C@@H]5C[C@H](OC(C)=O)CC[C@]5(C)[C@H]4CC[C@]23C)nc2ccccc12",
    "IC50": "7.02 µg/mL"
  },
  {
    "structure as smiles": "C=C[C@H]1CN2CC[C@H]1C[C@H]2[C@H](O)c1ccnc2ccc(OC)cc12",
    "IC50": "6.56 µg/mL"
  },
  {
    "structure as smiles": "C=C[C@H]1CN2CC[C@H]1C[C@H]2[C@H](O)c1cc(CC[C@@H](C)[C@H]2CC[C@H]3[C@@H]4CC[C@@H]5C[C@H](O)CC[C@]5(C)[C@H]4CC[C@]23C)nc2ccccc12",
    "IC50": "9.28 µg/mL"
  },
  {
    "structure as smiles": "C=C[C@H]1CN2CC[C@H]1C[C@H]2[C@H](O)c1ccnc2ccccc12",
    "IC50": "> 20 µg/mL"
  }
]

* * *

Tested on: WI-38
protocol summary: Cytotoxicity against human WI38 cells by MTT assay
Type: cell-based
IC50 overview

[
  {
    "molecule": "C=C[C@H]1CN2CC[C@H]1C[C@@H]2[C@@H](O)c1ccnc2ccccc12 [CINCHONINE]",
    "study target": "WI-38",
    "IC50": "> 20 µg/mL"
  },
  {
    "molecule": "C=C[C@H]1CN2CC[C@H]1C[C@@H]2[C@@H](O)c1ccnc2ccc(OC)cc12 [QUINIDINE]",
    "study target": "WI-38",
    "IC50": "11.3 µg/mL"
  },
  {
    "molecule": "C=C[C@H]1CN2CC[C@H]1C[C@H]2[C@H](O)c1cc(CC[C@@H](C)[C@H]2CC[C@H]3[C@@H]4CC[C@@H]5C[C@H](O)CC[C@]5(C)[C@H]4CC[C@]23C)nc2ccc(OC)cc12",
    "study target": "WI-38",
    "IC50": "> 20 µg/mL"
  }
]

* * *

protocol summary: Selectivity index, ratio of IC50 for human WI38 cells to IC50 for Leishmania mexicana mexicana MHOM/BZ/84/BEL46 promastigotes
Type: toxicity, cell-based, WI-38
run parameters: read-out: Ratio IC50

[
  {
    "structure as smiles": "C=C[C@H]1CN2CC[C@H]1C[C@H]2[C@H](O)c1cc(CC[C@@H](C)[C@H]2CC[C@H]3[C@@H]4[C@H](O)C[C@@H]5C[C@H](O)CC[C@]5(C)[C@H]4CC[C@]23C)nc2ccccc12",
    "selectivity ratio": 0.5
  },
  {
    "structure as smiles": "C=C[C@H]1CN2CC[C@H]1C[C@H]2[C@@H](O)c1cc(CC[C@@H](C)[C@H]2CC[C@H]3[C@@H]4[C@H](O)C[C@@H]5C[C@H](O)CC[C@]5(C)[C@H]4CC[C@]23C)nc2ccccc12",
    "selectivity ratio": 0.42
  },
  {
    "structure as smiles": "C=C[C@H]1CN2CC[C@H]1C[C@H]2[C@@H](O)c1cc(CC[C@@H](C)[C@H]2CC[C@H]3[C@@H]4CC[C@@H]5C[C@H](OC(C)=O)CC[C@]5(C)[C@H]4CC[C@]23C)nc2ccccc12",
    "selectivity ratio": 0.58
  },
  {
    "structure as smiles": "C=C[C@H]1CN2CC[C@H]1C[C@H]2[C@@H](O)c1cc(CC[C@@H](C)[C@H]2CC[C@H]3[C@@H]4[C@H](OC(C)=O)C[C@@H]5C[C@H](OC(C)=O)CC[C@]5(C)[C@H]4CC[C@]23C)nc2ccc(OC)cc12",
    "selectivity ratio": 0.75
  }
]

* * *

Here, each record is paired with measured selectivity ratio data.
protocol summary: in vitro
run parameters: human, WI38 cells
value type: selectivity ratio

[
  {
    "structure as smiles": "C=C[C@H]1CN2CC[C@H]1C[C@@H]2[C@@H](O)c1ccnc2ccc(OC)cc12",
    "recorded value": 1.3
  },
  {
    "structure as smiles": "C=C[C@H]1CN2CC[C@H]1C[C@H]2[C@H](O)c1cc(CC[C@@H](C)[C@H]2CC[C@H]3[C@@H]4CC[C@@H]5C[C@H](OC(C)=O)CC[C@]5(C)[C@H]4CC[C@]23C)nc2ccccc12",
    "recorded value": 4.4
  },
  {
    "structure as smiles": "C=C[C@H]1CN2CC[C@H]1C[C@H]2[C@H](O)c1cc(CC[C@@H](C)[C@H]2CC[C@H]3[C@@H]4[C@H](O)C[C@@H]5C[C@H](O)CC[C@]5(C)[C@H]4CC[C@]23C)nc2ccc(OC)cc12",
    "recorded value": 11.1
  }
]

* * *

Tested on: WI-38
protocol summary: Cytotoxicity against human WI38 cells by MTT assay
Assay type: cell-based
value type: log10(IC50) (log10 of the value in µg/mL)

[
  {
    "molecule": "C=C[C@H]1CN2CC[C@H]1C[C@H]2[C@H](O)c1cc(CC[C@@H](C)[C@H]2CC[C@H]3[C@@H]4[C@H](OC(C)=O)C[C@@H]5C[C@H](OC(C)=O)CC[C@]5(C)[C@H]4CC[C@]23C)nc2ccc(OC)cc12",
    "recorded value": 0.59
  },
  {
    "molecule": "C=C[C@H]1CN2CC[C@H]1C[C@H]2[C@@H](O)c1cc(CC[C@@H](C)[C@H]2CC[C@H]3[C@@H]4CC[C@@H]5C[C@H](O)CC[C@]5(C)[C@H]4CC[C@]23C)nc2ccccc12",
    "recorded value": 0.60
  },
  {
    "molecule": "C=C[C@H]1CN2CC[C@H]1C[C@H]2[C@@H](O)c1cc(CC[C@@H](C)[C@H]2CC[C@H]3[C@@H]4[C@H](OC(C)=O)C[C@@H]5C[C@H](OC(C)=O)CC[C@]5(C)[C@H]4CC[C@]23C)nc2ccc(OC)cc12",
    "recorded value": 0.49
  },
  {
    "molecule": "CC[C@@]1(O)C(=O)OCc2c1cc1n(c2=O)Cc2cc3ccccc3nc2-1 [CAMPTOTHECIN]",
    "recorded value": -0.40
  },
  {
    "molecule": "C=C[C@H]1CN2CC[C@H]1C[C@H]2[C@@H](O)c1cc(CC[C@@H](C)[C@H]2CC[C@H]3[C@@H]4CC[C@@H]5C[C@H](O)CC[C@]5(C)[C@H]4CC[C@]23C)nc2ccc(OC)cc12",
    "recorded value": 0.41
  },
  {
    "molecule": "C=C[C@H]1CN2CC[C@H]1C[C@H]2[C@H](O)c1cc(CC[C@@H](C)[C@H]2CC[C@H]3[C@@H]4[C@H](OC(C)=O)C[C@@H]5C[C@H](OC(C)=O)CC[C@]5(C)[C@H]4CC[C@]23C)nc2ccccc12",
    "recorded value": 0.25
  },
  {
    "molecule": "C=C[C@H]1CN2CC[C@H]1C[C@H]2[C@H](O)c1cc(CC[C@@H](C)[C@H]2CC[C@H]3[C@@H]4[C@H](O)C[C@@H]5C[C@H](O)CC[C@]5(C)[C@H]4CC[C@]23C)nc2ccccc12",
    "recorded value": 0.23
  },
  {
    "molecule": "C=C[C@H]1CN2CC[C@H]1C[C@H]2[C@H](O)c1cc(CC[C@@H](C)[C@H]2CC[C@H]3[C@@H]4CC[C@@H]5C[C@H](OC(C)=O)CC[C@]5(C)[C@H]4CC[C@]23C)nc2ccc(OC)cc12",
    "recorded value": 1.21
  },
  {
    "molecule": "C=C[C@H]1CN2CC[C@H]1C[C@H]2[C@@H](O)c1cc(CC[C@@H](C)[C@H]2CC[C@H]3[C@@H]4[C@H](O)C[C@@H]5C[C@H](O)CC[C@]5(C)[C@H]4CC[C@]23C)nc2ccccc12",
    "recorded value": 0.15
  }
]

Where these numbers come from: ChEMBL document CHEMBL2413023
